biological target: TrkA (Homo sapiens, UniProt P04629); assay: HTRF KinEASE kinase assay, recombinant Human TRK enzyme, TrkA (NTRK1); conditions: NTRK1 4 nM, read-out: TrkA Enz
Sequence (P04629 33-796): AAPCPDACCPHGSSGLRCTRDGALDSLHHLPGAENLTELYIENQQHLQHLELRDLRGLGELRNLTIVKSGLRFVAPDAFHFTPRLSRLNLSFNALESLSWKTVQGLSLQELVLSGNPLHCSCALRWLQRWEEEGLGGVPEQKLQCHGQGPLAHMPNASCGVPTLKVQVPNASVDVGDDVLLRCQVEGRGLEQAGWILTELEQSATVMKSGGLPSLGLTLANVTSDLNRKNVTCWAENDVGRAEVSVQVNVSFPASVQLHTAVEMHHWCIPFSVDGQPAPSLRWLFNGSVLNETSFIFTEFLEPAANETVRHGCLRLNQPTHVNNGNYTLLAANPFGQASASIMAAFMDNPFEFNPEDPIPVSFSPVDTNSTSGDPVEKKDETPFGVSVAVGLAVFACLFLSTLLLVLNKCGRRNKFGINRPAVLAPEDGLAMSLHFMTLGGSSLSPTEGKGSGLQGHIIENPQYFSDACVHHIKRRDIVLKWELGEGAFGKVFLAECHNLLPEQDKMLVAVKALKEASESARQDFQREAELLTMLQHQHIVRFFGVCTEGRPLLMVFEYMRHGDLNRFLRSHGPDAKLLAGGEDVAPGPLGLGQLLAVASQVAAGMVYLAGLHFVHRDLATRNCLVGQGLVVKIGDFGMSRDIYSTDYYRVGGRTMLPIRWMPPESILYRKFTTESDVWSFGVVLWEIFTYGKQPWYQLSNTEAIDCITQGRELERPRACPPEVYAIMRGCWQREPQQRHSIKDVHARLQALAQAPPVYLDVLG
pIC50: −log10 of the molar value.
ENDPOINT_LABEL: pIC50

(a) CSc1cc(F)cc([C@H]2C[C@H](F)CN2c2ccc3ncc(C(=O)NCc4ccc(F)c(O)c4)n3n2)c1
(b) CSc1cc(F)cc([C@H]2C[C@H](F)CN2c2ccc3ncc(C(=O)N[C@H]4CCN(Cc5cccc(OC(C)=O)c5)C4)n3n2)c1
// returns a or b , whichever has the lower pIC50 Record your answer as the label of the chosen record.
b

----------
molecular target: TrkA (Homo sapiens, UniProt P04629); experiment: HTRF KinEASE kinase assay, recombinant Human TRK enzyme, TrkA (NTRK1); conditions: NTRK1 4 nM, read-out: TrkA Enz
ENDPOINT_LABEL: IC50 (nM)

(P) CSc1cc(F)cc([C@H]2C[C@H](F)CN2c2ccc3ncc(C(=O)N[C@H]4CCN(C(=O)c5cccc(O)c5)C4)n3n2)c1
(Q) CSc1ccc(F)cc1[C@H]1C[C@H](F)CN1c1ccc2ncc(C(=O)NCc3cccc(O)c3)n2n1
Between these two entries, P and Q , state which has the higher IC50. Record your answer as the label of the chosen record.
P
(P: 1.34 nM, Q: 0.9 nM)

(A) CSc1cc(F)cc([C@H]2C[C@H](F)CN2c2ccn3ncc(C(=O)NC4CCN(Cc5cccc(O)c5)CC4)c3n2)c1
(B) CSc1ccc(F)cc1[C@H]1C[C@H](F)CN1c1ccc2ncc(C(=O)NCc3ccc(F)c(O)c3)n2n1
// returns A or B , whichever has the lower IC50 Record your answer as the label of the chosen record.
B

(A) COC(=O)c1cccc(CN2CC[C@H](NC(=O)c3cnc4ccc(N5C[C@@H](F)C[C@@H]5c5cc(F)ccc5SC)nn34)C2)c1
(B) CSc1ccc(F)cc1[C@H]1C[C@H](F)CN1c1ccc2ncc(C(=O)NC3CN(Cc4cccc(O)c4)C3)n2n1
// returns A or B , whichever has the lower IC50 Record your answer as the label of the chosen record.
A
(A: 1.18 nM, B: 1.9 nM)

(A) CSc1ccc(F)cc1[C@H]1C[C@H](F)CN1c1ccc2ncc(C(=O)N[C@H]3CCN(Cc4ccc(F)c(O)c4)C3)n2n1
(B) CCCCOC(=O)c1cccc(CN2CC[C@H](NC(=O)c3cnc4ccc(N5C[C@@H](F)C[C@@H]5c5cc(F)ccc5SC)nn34)C2)c1
Between these two entries, A and B , state which has the higher IC50. Record your answer as the label of the chosen record.
B

(a) CSc1ccc(F)cc1[C@H]1C[C@H](F)CN1c1ccc2ncc(C(=O)NC3CCN(Cc4cccc(O)c4)CC3)n2n1
(b) CSc1cc(F)cc([C@H]2C[C@H](F)CN2c2ccc3ncc(C(=O)N[C@H]4COCCN(Cc5ccc(F)c(O)c5)C4)n3n2)c1 (single isomer, unassigned)
// returns a or b , whichever has the lower IC50 Record your answer as the label of the chosen record.
a

(a) CSc1cc(F)cc([C@H]2C[C@H](F)CN2c2ccc3ncc(C(=O)N[C@H]4CCN(Cc5cccc(O)c5)C4)n3n2)c1
(b) CSc1cc(F)cc([C@H]2C[C@H](F)CN2c2ccc3ncc(C(=O)N[C@@H]4COCCN(Cc5ccc(F)c(O)c5)C4)n3n2)c1 (single isomer, unassigned)
(c) CCCCOC(=O)c1cccc(CN2CC[C@H](NC(=O)c3cnc4ccc(N5C[C@@H](F)C[C@@H]5c5cc(F)cc(SC)c5)nn34)C2)c1
Rank ascending by IC50. Returns: the labels listed in the requested order.
a, b, c
(a: 2.41 nM, b: 6.9 nM, c: 22.4 nM)

(1) CSc1cc(F)cc([C@H]2C[C@H](F)CN2c2ccc3ncc(C(=O)NC4CN(Cc5cccc(O)c5)C4)n3n2)c1
(2) CSc1ccc(F)cc1[C@H]1C[C@H](F)CN1c1ccc2ncc(C(=O)NC3CCN(Cc4ccc(F)c(O)c4)CC3)n2n1
(3) CSc1ccc(F)cc1[C@H]1C[C@H](F)CN1c1ccc2ncc(C(=O)N[C@H]3CCN(Cc4cccc(O)c4)C3)n2n1
(4) CSc1cc(F)cc([C@H]2C[C@H](F)CN2c2ccc3ncc(C(=O)N[C@H]4CCN(Cc5cccc(C(=O)O)c5)C4)n3n2)c1
Rank ascending by IC50. Returns: the labels listed in the requested order.
3, 2, 1, 4
(3: 0.79 nM, 2: 1.47 nM, 1: 2.69 nM, 4: 5.84 nM)

(A) COC(=O)c1cccc(CN2CC[C@H](NC(=O)c3cnc4ccc(N5C[C@@H](F)C[C@@H]5c5cc(F)cc(SC)c5)nn34)C2)c1
(B) CCCCC(=O)Oc1cccc(CN2CC[C@H](NC(=O)c3cnc4ccc(N5C[C@@H](F)C[C@@H]5c5cc(F)ccc5SC)nn34)C2)c1
// returns A or B , whichever has the lower IC50 Record your answer as the label of the chosen record.
A
(A: 1.73 nM, B: 3.81 nM)

----------
biological target: TrkB (Homo sapiens, UniProt Q16620); construct: purchased Invitrogen; test: HTRF KinEASE kinase assay, recombinant Human TRK enzyme, TrkB (NTRK2); type: biochemical; settings: NTRK2 1 nM, read-out: TrkB Enz
Sequence (Q16620 32-822): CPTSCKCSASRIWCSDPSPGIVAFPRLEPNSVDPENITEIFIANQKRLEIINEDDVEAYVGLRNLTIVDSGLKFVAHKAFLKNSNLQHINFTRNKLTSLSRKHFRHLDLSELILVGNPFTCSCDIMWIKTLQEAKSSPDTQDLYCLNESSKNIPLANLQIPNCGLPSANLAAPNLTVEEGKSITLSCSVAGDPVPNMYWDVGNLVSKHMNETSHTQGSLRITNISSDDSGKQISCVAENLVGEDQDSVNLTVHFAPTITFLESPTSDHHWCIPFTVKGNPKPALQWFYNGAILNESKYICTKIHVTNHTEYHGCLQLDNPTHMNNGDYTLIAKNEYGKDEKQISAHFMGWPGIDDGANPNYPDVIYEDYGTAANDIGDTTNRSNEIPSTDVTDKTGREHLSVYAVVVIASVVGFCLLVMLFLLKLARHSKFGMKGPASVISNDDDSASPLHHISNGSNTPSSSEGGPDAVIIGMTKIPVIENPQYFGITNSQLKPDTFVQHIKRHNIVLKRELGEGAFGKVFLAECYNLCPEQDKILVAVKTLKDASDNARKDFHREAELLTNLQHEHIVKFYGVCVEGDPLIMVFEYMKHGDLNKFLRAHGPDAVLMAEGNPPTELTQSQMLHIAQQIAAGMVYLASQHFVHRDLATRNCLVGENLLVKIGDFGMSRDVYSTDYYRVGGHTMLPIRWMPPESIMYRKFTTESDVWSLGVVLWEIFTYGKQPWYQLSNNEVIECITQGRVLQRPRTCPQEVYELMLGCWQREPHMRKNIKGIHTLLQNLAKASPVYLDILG
ENDPOINT_LABEL: IC50 (nM)

Please review the entries below; each comes with its answer.
| COMPOUND | IC50, nM |
| --- | --- |
| COC(=O)c1cccc(CN2CC[C@H](NC(=O)c3cnc4ccc(N5C[C@@H](F)C[C@@H]5c5cc(F)ccc5SC)nn34)C2)c1 [Example 10] | 2.15 |
| CSc1ccc(F)cc1[C@H]1C[C@H](F)CN1c1ccc2ncc(C(=O)NC3CCN(Cc4cccc(O)c4)CC3)n2n1 [Example 3] | 0.79 |
| CSc1ccc(F)cc1[C@H]1C[C@H](F)CN1c1ccc2ncc(C(=O)NCc3cccc(O)c3)n2n1 [Example 7] | 0.49 |
| CSc1cc(F)cc([C@H]2C[C@H](F)CN2c2ccc3ncc(C(=O)N[C@H]4CCN(Cc5ccc(F)c(O)c5)C4)n3n2)c1 [Example 18] | 7.82 |
| CSc1cc(F)cc([C@H]2C[C@H](F)CN2c2ccc3ncc(C(=O)NC4CN(Cc5ccc(F)c(O)c5)C4)n3n2)c1 [Example 19] | 3.04 |
| COC(=O)c1cccc(CN2CC[C@H](NC(=O)c3cnc4ccc(N5C[C@@H](F)C[C@@H]5c5cc(F)cc(SC)c5)nn34)C2)c1 [Example 16] | 4.54 |
| CCCCOC(=O)c1cccc(CN2CC[C@H](NC(=O)c3cnc4ccc(N5C[C@@H](F)C[C@@H]5c5cc(F)cc(SC)c5)nn34)C2)c1 [Example 30] | 14.9 |
| CSc1cc(F)cc([C@H]2C[C@H](F)CN2c2ccc3ncc(C(=O)NCc4ccc(F)c(O)c4)n3n2)c1 [Example 26] | 1.85 |
| CSc1ccc(F)cc1[C@H]1C[C@H](F)CN1c1ccc2ncc(C(=O)NC3CN(Cc4ccc(F)c(O)c4)C3)n2n1 [Example 4] | 1.05 |
| CSc1ccc(F)cc1[C@H]1C[C@H](F)CN1c1ccc2ncc(C(=O)NC3CN(Cc4cccc(O)c4)C3)n2n1 [Example 5] | 1.19 |

(A) CSc1cc(F)cc([C@H]2C[C@H](F)CN2c2ccc3ncc(C(=O)N[C@H]4CCN(Cc5cccc(OC(C)=O)c5)C4)n3n2)c1 [Example 28]
(B) CSc1ccc(F)cc1[C@H]1CCCN1c1ccc2ncc(C(=O)NC3CN(Cc4ccc(F)c(O)c4)C3)n2n1 [Example 1]
(C) CSc1cc(F)cc([C@H]2CCCN2c2ccc3ncc(C(=O)N[C@H]4CCN(Cc5ccc(F)c(O)c5)C4)n3n2)c1 [Example 15]
(D) CSc1cc(F)cc([C@H]2C[C@H](F)CN2c2ccn3ncc(C(=O)NC4CCN(Cc5cccc(O)c5)CC4)c3n2)c1 [Example 31]
Rank descending by IC50. Returns: the labels listed in the requested order.
C, A, B, D
(C: 9.15 nM, A: 5.67 nM, B: 2.06 nM, D: 0.86 nM)

(I) CSc1cc(F)cc([C@H]2C[C@H](F)CN2c2ccc3ncc(C(=O)N[C@H]4CCN(Cc5cccc(O)c5)C4)n3n2)c1 [Example 17]
(II) CCCCOC(=O)c1cccc(CN2CC[C@H](NC(=O)c3cnc4ccc(N5C[C@@H](F)C[C@@H]5c5cc(F)ccc5SC)nn34)C2)c1 [Example 12]
(III) CSc1ccc(F)cc1[C@H]1C[C@H](F)CN1c1ccc2ncc(C(=O)NC3CCN(Cc4ccc(F)c(O)c4)CC3)n2n1 [Example 6]
(IV) CSc1cc(F)cc([C@H]2C[C@H](F)CN2c2ccc3ncc(C(=O)NC4CCN(Cc5ccc(F)c(O)c5)CC4)n3n2)c1 [Example 21]
Rank ascending by IC50. Returns: the labels listed in the requested order.
III, IV, I, II
(III: 0.81 nM, IV: 1.5 nM, I: 5.04 nM, II: 10.3 nM)
